# Read-out: Transforming growth factor beta 1 (TGFb1), TGFB1 (gene 7040)
# Protocol Summary: BSK_KF3CT_TGFb1: BioMAP Diversity Plus: KF3CT Assay for Transforming growth factor beta 1 (TGFb1) Biomarker Activity (AID 2283072)
# Test Conditions: primary human keratinocytes with fibroblasts; actives raise or lower the signal
# Method: BSK_KF3CT is a cell-based, multiplexed-readout assay that uses keratinocytes and foreskin fibroblasts, a human skin primary cell co-culture, with measurements taken at 24 hours after chemical dosing in a 96-well plate.BSK_KF3CT_TGFb1 is an assay component measured in the BSK_KF3CT assay. It measures TGF-b1 antibody related to regulation of gene expression using ELISA technology.Data from the assay component BSK_KF3CT_TGFb1 was analyzed into 1 assay endpoint. […]
Calls of active or inactive are those of the source. Rule for the calls: active = hit-call score of the fitted dose curve at least 0.9, where 1 is the maximum; inactive = score below 0.9.
Result Type: outcome

Compound	Result Type	Meas Value
CCCCN1C(=O)[C@@H]([C@H](O)C2CCCCC2)NC(=O)C12CCN(Cc1ccc(Oc3ccc(C(=O)O)cc3)cc1)CC2	outcome	inactive
O=C(O)[C@H](O)[C@@H](O)C(=O)O	outcome	inactive
O=c1[nH]cnc2c1ncn2[C@H]1CC[C@@H](CO)O1	outcome	inactive
OCc1c[nH]c2ccccc12	outcome	inactive
C=CCc1cc(S(=O)(=O)c2ccc(O)c(CC=C)c2)ccc1O	outcome	inactive
c1ccc2ncccc2c1	outcome	inactive
OC[C@H]1O[C@@](CO)(O[C@H]2O[C@H](CO)[C@@H](O)[C@H](O)[C@H]2O)[C@@H](O)[C@@H]1O	outcome	inactive
CCCCC(CC)C(=O)OCCOCCOCCOC(=O)C(CC)CCCC (configuration not stated)	outcome	inactive
CCCCCCCC1CCC(=O)O1 (configuration not stated)	outcome	inactive
c1ccc(C(O[C@@H]2CCCN(CCc3ccc4c(c3)OCO4)C2)c2ccccc2)cc1	outcome	inactive
OCc1ccccc1	outcome	inactive
O=C(O)c1cccc(C[C@@H]2COc3ccc(OCc4nc5cc(F)ccc5s4)cc3[C@@H]2O)c1	outcome	inactive
Cc1ncc([C@@H](CCCCCCc2ccc3c(n2)NCCC3)CC(=O)O)cn1	outcome	inactive
O=S(=O)(O)c1ccc(N=Nc2c(O)ccc3cc(S(=O)(=O)O)ccc23)cc1	outcome	inactive
COCc1nnc(-c2ccc[n+]([O-])c2)n1-c1c(Cl)c(Cl)cc2[nH]c(=O)c(=O)[nH]c12	outcome	inactive
OC(CCl)CCl	outcome	inactive
c1ccc2cc3ccccc3cc2c1	outcome	inactive

====

# Read-out: Macrophage colony-stimulating factor (MCSF), CSF1 (gene 1435)
# Protocol Summary: BSK_hDFCGF_MCSF: BioMAP Diversity Plus: hDFCGF Assay for Macrophage colony-stimulating factor (MCSF) Biomarker Activity (AID 2283060)
# Test Conditions: primary human foreskin fibroblasts; actives raise or lower the signal
The source made the active and inactive calls. The calls were made as follows: active = hit-call score of the fitted dose curve at least 0.9, where 1 is the maximum; inactive = score below 0.9.
Outcomes: active, inactive

Molecule	Group
CCCC(CCC)C(=O)O	inactive
COCc1nnc(-c2ccc[n+]([O-])c2)n1-c1c(Cl)c(Cl)cc2[nH]c(=O)c(=O)[nH]c12	inactive
CC(C)CCCCCCOC(=O)C1CCCCC1C(=O)OCCCCCCC(C)C (centres undefined)	inactive
CCCCCOC(C)=O	inactive
COc1cc(C(C)C)c2c(c1)S(=O)(=O)N(COc1cc(=O)n3cccc(OCCN4CCCCC4)c3n1)C2=O	active
CCCCOC(=O)c1ccccc1	inactive
C[Si](C)(C)C(F)(F)C(F)(F)C(F)(F)F	inactive
CCCCCCCCCCCCCCO	active
CCN(CC)C(=S)SSC(=S)N(CC)CC	active
c1ccc(C(O[C@@H]2CCCN(CCc3ccc4c(c3)OCO4)C2)c2ccccc2)cc1	active
OCC(CO)(CO)CO	inactive
c1ccc2cc3ccccc3cc2c1	inactive
Cc1ccc(S(=O)(=O)NC(=O)NN2CCCCCC2)cc1	inactive
CCc1cccc(CC)c1N	inactive

====

# Protocol Summary: CCTE_Shafer_MEA_dev_LDH: CCTE's Lactate Dehydrogenase Assay for Cytotoxicity in the Neural Network Formation Assay, Shafer Lab (AID 2284068);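 note: exposure for twelve days from plating with re-dosing on DIV 5 and 9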
Results filed as inconclusive are left out. The source made the active and inactive calls. How the source made its calls: active means hit-call score of the fitted dose curve at least 0.9, where 1 is the maximum; inconclusive means response in the unintended direction; inactive means score below 0.9.
Result Type: AC50

Smiles Entry	Meas Value
OC(Cn1cncn1)(Cn1cncn1)c1ccc(F)cc1F	inactive
Cn1cc[nH]c1=S	46.6 nM (active)
COc1cc2c(c(OC)c1OC)-c1ccc(OC)c(=O)cc1[C@@H](NC(C)=O)CC2	16.7 nM (active)
NC(=O)N1c2ccccc2C=Cc2ccccc21	inactive
OC(O)(C(F)C(O)(O)C(F)(F)F)C(F)(F)F	inactive
FC(F)(F)COC(OCC(F)(F)F)OCC(F)(F)F	inactive
CCCC(CCC)C(=O)O	inactive
c1ccc2c(c1)-c1cccc3c1c-2cc1ccccc13	inactive

====

# Read-out: sulfotransferase 2A1 (SULT2A1), SULT2A1 (gene 6822)
# Protocol Summary: LTEA_HepaRG_SULT2A1: Life Technologies and Expression Analysis (LTEA) Assay for sulfotransferase 2A1 (SULT2A1) using HepaRG (AID 2283531)
# Test Conditions: mRNA level, 48 h; actives raise or lower the signal
Activity calls are given as the source filed them. Rule for the calls: active = hit-call score of the fitted dose curve at least 0.9, where 1 is the maximum; inactive = score below 0.9.
Outcomes: T (active), F (inactive)

Compound	Group
O=C(O)c1cccc(C[C@@H]2COc3ccc(OCc4nc5cc(F)ccc5s4)cc3[C@@H]2O)c1	F
O=C(O)[C@H](O)[C@@H](O)C(=O)O	F
OCc1ccccc1	F
CCCCCCCC1CCC(=O)O1 (configuration not stated)	F
NC(=O)NN=Cc1ccc([N+](=O)[O-])o1	F
CCn1nc(C)c2c1C(=O)NCC(c1ccc(O)cc1)=N2	F
CC(C)CC(C)O (configuration not stated)	F
OC[C@H]1O[C@@](CO)(O[C@H]2O[C@H](CO)[C@@H](O)[C@H](O)[C@H]2O)[C@@H](O)[C@@H]1O	F
O=C(NO)C1(NS(=O)(=O)c2ccc(Oc3ccc(F)cc3)cc2)CCOCC1	F
C=CCc1cc(S(=O)(=O)c2ccc(O)c(CC=C)c2)ccc1O	T
O=C1CN(N=Cc2ccc([N+](=O)[O-])o2)C(=O)N1	F
CCCCCCCCN(C)C	F

====

# Read-out: Interleukin 2 (IL2), IL2 (gene 3558)
# Protocol Summary: BSK_BT_xIL2: BioMAP Diversity Plus: BT Assay for Interleukin 2 (IL2) Biomarker Activity (AID 2284245)
# Test Conditions: primary human B cells with PBMC
Calls of active or inactive are those of the source. Rule for the calls: active = hit-call score of the fitted dose curve at least 0.9, where 1 is the maximum; inactive = score below 0.9.
Outcomes: 1 for active, -1 for inactive

Smiles Entry	Group
Cc1cccc(O)c1C	-1
OCc1c[nH]c2ccccc12	1
FC(F)=C(F)C(F)(F)C(F)(F)C(F)(F)C(F)(F)C(F)(F)C(F)(F)F	-1
FC(F)(F)C(F)(F)C(F)(F)C(F)(F)C(F)(F)C(F)(F)I	-1
NCC(F)(F)C(F)(F)C(F)(F)C(F)(F)F	-1
S=P(N1CC1)(N1CC1)N1CC1	-1
C[Si](C)(C)C(F)(F)C(F)(F)C(F)(F)F	-1

====

# Read-out: Vascular cell adhesion molecule 1 (VCAM1), VCAM1 (gene 7412)
# Protocol Summary: BSK_hDFCGF_VCAM1: BioMAP Diversity Plus: hDFCGF Assay for Vascular cell adhesion molecule 1 (VCAM1) Biomarker Activity (AID 2283065);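 for AC50: VCAM-1 protein level quantified by ELISA after 24 h chemical exposure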
# Test Conditions: primary human foreskin fibroblasts; actives raise or lower the signal
The source made the active and inactive calls. How the source made its calls: active means hit-call score of the fitted dose curve at least 0.9, where 1 is the maximum; inactive means score below 0.9.

Compound	AC50
CC(=O)c1ccccc1	inactive
CCN(CC)C(=S)SSC(=S)N(CC)CC	1.56 µM (active)
OCc1c[nH]c2ccccc12	3.97 µM (active)
OC(Cn1cncn1)(Cn1cncn1)c1ccc(F)cc1F	inactive
CCCC(CCC)C(=O)O	inactive
C=CCc1cc(S(=O)(=O)c2ccc(O)c(CC=C)c2)ccc1O	15 µM (active)
O=C(O)c1cccc(C(=O)O)c1	inactive
CCCOc1ccc(S(=O)(=O)N2CCN(CC)CC2)cc1-c1nc2c(CC)n(Cc3ccccn3)nc2c(=O)[nH]1	inactive
NCC(F)(F)C(F)(F)C(F)(F)C(F)(F)F	inactive
CCCCN1C(=O)[C@@H]([C@H](O)C2CCCCC2)NC(=O)C12CCN(Cc1ccc(Oc3ccc(C(=O)O)cc3)cc1)CC2	31 µM (active)
CCCCC(CC)C(=O)OCCOCCOCCOC(=O)C(CC)CCCC (configuration not stated)	inactive
O=C(Cl)C(F)(F)C(F)(F)C(F)(F)C(=O)Cl	inactive

====

# Tgt: Estrogen receptor (Homo sapiens) + Estrogen receptor beta (Homo sapiens) (UniProt P03372+Q92731)
# Sequence (P03372 whole entry, looked up): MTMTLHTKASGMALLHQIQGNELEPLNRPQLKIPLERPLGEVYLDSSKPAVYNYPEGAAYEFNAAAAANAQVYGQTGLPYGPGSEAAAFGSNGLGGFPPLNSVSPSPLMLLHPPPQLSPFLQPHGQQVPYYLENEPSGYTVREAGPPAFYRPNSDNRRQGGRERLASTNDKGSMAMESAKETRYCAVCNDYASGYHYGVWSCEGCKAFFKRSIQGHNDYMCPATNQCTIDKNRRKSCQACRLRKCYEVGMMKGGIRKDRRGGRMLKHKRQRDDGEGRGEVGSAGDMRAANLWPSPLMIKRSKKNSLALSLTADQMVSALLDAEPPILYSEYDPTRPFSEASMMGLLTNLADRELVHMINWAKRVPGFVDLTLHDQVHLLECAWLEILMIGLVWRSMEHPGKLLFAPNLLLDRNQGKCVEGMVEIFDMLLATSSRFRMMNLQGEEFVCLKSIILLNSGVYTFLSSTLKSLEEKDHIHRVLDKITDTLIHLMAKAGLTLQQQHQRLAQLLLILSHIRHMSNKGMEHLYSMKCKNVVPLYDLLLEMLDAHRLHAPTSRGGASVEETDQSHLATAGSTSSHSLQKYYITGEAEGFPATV
# Sequence (Q92731 whole entry, looked up): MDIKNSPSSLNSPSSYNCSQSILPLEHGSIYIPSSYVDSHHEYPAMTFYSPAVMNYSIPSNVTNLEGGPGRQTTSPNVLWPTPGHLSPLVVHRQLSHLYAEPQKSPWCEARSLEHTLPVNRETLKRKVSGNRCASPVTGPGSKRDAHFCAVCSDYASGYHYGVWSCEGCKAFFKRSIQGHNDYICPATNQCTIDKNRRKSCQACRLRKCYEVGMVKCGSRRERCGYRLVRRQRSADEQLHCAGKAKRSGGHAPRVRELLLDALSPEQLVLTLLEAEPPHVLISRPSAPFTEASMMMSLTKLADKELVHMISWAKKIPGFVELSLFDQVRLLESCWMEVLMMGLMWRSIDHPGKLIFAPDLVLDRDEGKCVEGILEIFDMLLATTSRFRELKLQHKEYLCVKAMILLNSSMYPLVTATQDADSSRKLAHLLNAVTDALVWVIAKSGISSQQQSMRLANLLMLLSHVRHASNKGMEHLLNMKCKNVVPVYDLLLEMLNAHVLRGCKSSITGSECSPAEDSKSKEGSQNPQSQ
# Protocol Summary: OT_ER_ERaERb_0480: Odyssey Thera (OT) 8-hour HEK293T Protein-Complementation Assay for Estrogen Receptor-alpha/-beta Heterodimer (AID 2283352)
Records with an inconclusive call do not appear. Calls of active or inactive are those of the source. How the source made its calls: active means hit-call score of the fitted dose curve at least 0.9, where 1 is the maximum; inconclusive means response in the unintended direction; inactive means score below 0.9.
Outcomes: active, inactive

Compound	Group
CC(C)CCCCCCOC(=O)C1CCCCC1C(=O)OCCCCCCC(C)C (stereo not given)	inactive
CCCCC(CC)C(=O)OCCOCCOCCOC(=O)C(CC)CCCC (stereo not given)	inactive
O=C(O)[C@H](O)[C@@H](O)C(=O)O	inactive
COCc1nnc(-c2ccc[n+]([O-])c2)n1-c1c(Cl)c(Cl)cc2[nH]c(=O)c(=O)[nH]c12	inactive
c1ccc(C(O[C@@H]2CCCN(CCc3ccc4c(c3)OCO4)C2)c2ccccc2)cc1	active
